# credit: patent US20220177587A1

- Assayed Target: huCTLA4 (Homo sapiens, UniProt P16410)
- Sequence (P16410 36-223): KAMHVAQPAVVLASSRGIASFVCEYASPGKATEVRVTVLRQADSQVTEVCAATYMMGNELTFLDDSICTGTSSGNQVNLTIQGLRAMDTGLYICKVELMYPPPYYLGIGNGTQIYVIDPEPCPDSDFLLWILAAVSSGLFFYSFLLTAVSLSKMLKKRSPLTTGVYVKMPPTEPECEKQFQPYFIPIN
- Test Name: Flow binding to CHO cells stably expressing CTLA4
- Parameters: huCTLA4 and huPD-L1, full-length mammalian surface expression constructs were generated; expressed in transfected cells; host or cells: CHO cells, lentiviral transduction, sorted to >98% purity
- Measurement Context: Table E11; CHO cells stably expressing CTLA4; 33.3 nM
For each entry below, report its CTLA4 MFI at 33.3 nM value.
Answer with the value's number alone.

Supply reported CTLA4 MFI at 33.3 nM belonging to this molecule: E35D/M47V/V68M/L85M/Y87D (protein, UniProt P33681 35-288, looked up, variant E35D M47V V68M L85M Y87D) T-lymphocyte activation …: VIHVTKEVKEVATLSCGHNVSVEELAQTRIYWQKDKKMVLTMMSGDVNIWPEYKNRTIFDITNNLSIMILALRPSDEGTYECVVMKDEKDAFKREHLAEVTLSVKADFPTPSISDFEIPTSNIRRIICSTSGGFPEPHLSWLENGEELNAINTTVSQDPETELYAVSSKLDFNMTTNHSFMCLIKYGHLRVNQTFNWNTTKQEHFPDNLLPSWAITLISVNGIFVICCLTYCFAPRCRERRRNERLRRESVRPV
13936

Consider the molecule T13R/Q33L/E35D/M47L/V68M/L85M (protein, UniProt P33681 35-288, looked up, variant T13R Q33L E35D M47L V68M L85M) T-lymphocyte activation …: VIHVTKEVKEVARLSCGHNVSVEELAQTRIYWLKDKKMVLTMMSGDLNIWPEYKNRTIFDITNNLSIMILALRPSDEGTYECVVMKYEKDAFKREHLAEVTLSVKADFPTPSISDFEIPTSNIRRIICSTSGGFPEPHLSWLENGEELNAINTTVSQDPETELYAVSSKLDFNMTTNHSFMCLIKYGHLRVNQTFNWNTTKQEHFPDNLLPSWAITLISVNGIFVICCLTYCFAPRCRERRRNERLRRESVRPV and give its recorded CTLA4 MFI at 33.3 nM.
141

Complete the entry with CTLA4 MFI at 33.3 nM for T13R/Q33R/E35D/M38I/M47L/V68M/E95V/L97Q (protein, UniProt P33681 35-288, looked up, variant T13R Q33R E35D M38I M47L V68M E95V L97Q) T-lymphocyte activation …: VIHVTKEVKEVARLSCGHNVSVEELAQTRIYWRKDKKIVLTMMSGDLNIWPEYKNRTIFDITNNLSIMILALRPSDEGTYECVVLKYEKDAFKRVHQAEVTLSVKADFPTPSISDFEIPTSNIRRIICSTSGGFPEPHLSWLENGEELNAINTTVSQDPETELYAVSSKLDFNMTTNHSFMCLIKYGHLRVNQTFNWNTTKQEHFPDNLLPSWAITLISVNGIFVICCLTYCFAPRCRERRRNERLRRESVRPV
20652
